- Tested on: HSkMC
- assay notes: cytotoxicity call (relative viability < 0.9)
- assay conditions: 10 µM
The whole screen tested about 39,000 compounds, of which about 1,500 (3.8%) were called active. The sample holds actives, similar compounds and a random draw of the others, so the mix is not that of the screen.
Possible outcomes: 1.0 = active, 0.0 = inactive

compound | category label
COC1=CC(=O)c2ccccc2C1=O | 0.0
C/C=C/C(=O)N1CCC=CC1=O | 0.0
COc1ccc(CN(C)C[C@@H]2Oc3ccc(NC(=O)Nc4ccc(C(F)(F)F)cc4)cc3CC(=O)N([C@H](C)CO)C[C@H]2C)cc1 | 0.0
C[C@H](CO)N1C[C@H](C)[C@@H](CN(C)S(C)(=O)=O)OCCCC[C@H](C)Oc2ccc(NS(=O)(=O)c3cn(C)cn3)cc2C1=O | 0.0
Cc1noc(C)c1NC(=O)Nc1ccc2c(c1)C(=O)N([C@H](C)CO)C[C@H](C)[C@H](CN(C)Cc1ccc3c(c1)OCO3)OCCCC[C@H](C)O2 | 0.0
COc1ccc(NC(=O)Nc2ccc3c(c2)CC(=O)N([C@@H](C)CO)C[C@H](C)[C@@H](CN(C)C(=O)Nc2ccc(C(F)(F)F)cc2)O3)cc1 | 0.0
Cn1nnc2c(Cl)ncnc21 | 0.0
C[C@H](CO)N1C[C@H](C)[C@H](CN(C)Cc2ccncc2)Oc2c(NC(=O)Nc3cccc4ccccc34)cccc2C1=O | 0.0
C[C@H]1CN([C@@H](C)CO)C(=O)c2cccc(NC(=O)NC3CCCCC3)c2O[C@@H]1CN(C)Cc1ccc(-c2ccccc2)cc1 | 0.0
C/C(=C\CO)CC[C@H](C)CCC[C@H](C)CCCC(C)C | 0.0
COc1cc(/C=C/C(=O)N2CCC=CC2=O)cc(OC)c1OC(=O)CCCCCCCCCCC(=O)Oc1c(OC)cc(/C=C/C(=O)N2CCC=CC2=O)cc1OC | 0.0
C[C@@H]1CN([C@H](C)CO)C(=O)c2cccc(NC(=O)Nc3ccc(F)cc3)c2O[C@@H]1CN(C)Cc1ccc(-c2ccccc2)cc1 | 0.0
COC1=CC(=O)C(O)=CC1=CC=Cc1ccccc1 | 1.0
COc1cc(/C=C/C(=O)N2CCC=CC2=O)cc(OC)c1OCCOCCOCCOCCC(=O)OC(C)(C)C | 1.0
C[C@@H]1CCCCO[C@H](CN(C)C(=O)CCC(F)(F)F)[C@H](C)CN([C@@H](C)CO)C(=O)c2cc(NS(=O)(=O)c3ccc(Cl)cc3)ccc2O1 | 0.0
COc1ccc(CN(C)C[C@@H]2Oc3ccc(NS(=O)(=O)c4cn(C)cn4)cc3CC(=O)N([C@H](C)CO)C[C@H]2C)cc1 | 0.0
COc1ccc(S(=O)(=O)Nc2cccc3c2O[C@H](CN(C)Cc2ccncc2)[C@@H](C)CN([C@H](C)CO)C3=O)cc1 | 0.0
COC(=O)C=Cc1cc(OC)c(OC)c(OC)c1 | 0.0
COc1ccc(C(=O)C=Cc2ccccc2)cc1 | 0.0
CCCNC(=O)Cc1nnc[nH]1 | 0.0
COCC(=O)Nc1ccc2c(c1)C(=O)N(C)C[C@H](OC)[C@@H](C)CN(Cc1ccccc1OC)[C@H](C)CO2 | 0.0
O=C(CN1CCOCC1)NCC[C@@H]1CC[C@H](NS(=O)(=O)c2ccc(Cl)cc2)[C@@H](CO)O1 | 0.0
C[C@@H]1CCCCO[C@H](CN(C)C(=O)Nc2ccc(F)cc2)[C@@H](C)CN([C@H](C)CO)C(=O)c2cc(NC(=O)Nc3ccc4c(c3)OCO4)ccc2O1 | 0.0
Cc1noc(C)c1NC(=O)N(C)C[C@H]1OCCCC[C@@H](C)Oc2ccc(NS(=O)(=O)c3ccccc3)cc2C(=O)N([C@H](C)CO)C[C@H]1C | 0.0
CON(C)c1nc(Oc2ccc(=O)[nH]n2)nc(N(C)C)n1 | 0.0
C[C@@H]1CN([C@H](C)CO)C(=O)c2cccc(NC(=O)Nc3ccc(F)cc3)c2O[C@H]1CN(C)C(=O)Nc1cccc2ccccc12 | 0.0
CO[C@@H](CN(C)S(=O)(=O)c1ccc(C)cc1)[C@@H](C)CN([C@@H](C)CO)S(=O)(=O)c1cccc(Cl)c1 | 0.0
C[C@H]1CN([C@@H](C)CO)C(=O)Cc2cc(NS(=O)(=O)c3ccc(F)cc3)ccc2O[C@H]1CN(C)Cc1ccc(-c2ccccc2)cc1 | 1.0
C[C@H](CO)N1C[C@H](C)[C@H](CN(C)S(C)(=O)=O)OCCCC[C@H](C)Oc2ccc(NC(=O)CCCN(C)C)cc2C1=O | 0.0
CNC(=O)CN1CCN2CCN(CC(=O)NC)CC(=O)[O][Gd]([O]C(=O)C2)[O]C(=O)C1 | 0.0
COc1ccc(S(=O)(=O)Nc2ccc3c(c2)C(=O)N([C@@H](C)CO)C[C@@H](C)[C@H](CN(C)S(C)(=O)=O)O3)cc1 | 0.0
CC(=CCO)CCC(C)CCCC(C)CCCC(C)C (stereo not drawn) | 1.0
COC(=O)c1cccnc1 | 0.0

----------
- System: HSkMC
- assay notes: cytotoxicity call (relative viability < 0.9)
- assay conditions: 10 µM
Screen size: about 39,000 compounds; about 1,500 (3.8%) were called active. The list comes from a sample in which actives are over-represented; it also holds close analogues and randomly drawn compounds.
Outcome codes: TRUE = active, FALSE = inactive

chem smiles | category label
O=C(C[C@H]1C[C@@H]2c3cc(NC(=O)c4ccc5c(c4)OCO5)ccc3O[C@@H]2[C@@H](CO)O1)NCc1ccc(Oc2ccccc2)cc1 | FALSE
O=C(C[C@@H]1CC[C@@H]2[C@H](COC[C@@H](O)CN2S(=O)(=O)c2ccccc2)O1)N[C@H]1CCN(Cc2ccccc2)C1 | FALSE
O=C(C[C@@H]1C[C@@H]2c3cc(NC(=O)c4ccc5c(c4)OCO5)ccc3O[C@@H]2[C@H](CO)O1)NCc1ccc(Oc2ccccc2)cc1 | TRUE
COCCNC(=O)C[C@H]1CC[C@@H]2[C@@H](COc3ccc(NS(=O)(=O)c4ccc(Cl)cc4)cc3C(=O)N2C)O1 | FALSE
C[C@@H]1CCCCO[C@H](CN(C)C(=O)CCC(F)(F)F)[C@@H](C)CN([C@H](C)CO)C(=O)c2cc(NC(=O)Cc3ccccc3)ccc2O1 | FALSE
COc1ccccc1CNC(=O)C[C@@H]1C[C@@H]2c3cc(NC(=O)c4ccc5c(c4)OCO5)ccc3O[C@@H]2[C@H](CO)O1 | FALSE
COc1ccc(NC(=O)N(C)C[C@@H]2Oc3ccc(NS(=O)(=O)c4c(C)noc4C)cc3CC(=O)N([C@@H](C)CO)C[C@H]2C)cc1 | FALSE
C[C@@H]1CCCCO[C@@H](CN(C)S(=O)(=O)c2ccccc2)[C@H](C)CN([C@@H](C)CO)C(=O)c2cc(NS(=O)(=O)c3cn(C)cn3)ccc2O1 | FALSE
O=C(C[C@H]1C[C@H]2c3cc(NC(=O)c4ccc5c(c4)OCO5)ccc3O[C@H]2[C@@H](CO)O1)NCc1ccc(Oc2ccccc2)cc1 | FALSE
O=C(C[C@@H]1C[C@H]2c3cc(NC(=O)c4ccc5c(c4)OCO5)ccc3O[C@H]2[C@H](CO)O1)NCc1ccc(Oc2ccccc2)cc1 | FALSE
CO[C@H]1O[C@H](CO)[C@@H](OC(=O)Nc2ccc(Oc3ccccc3)cc2)[C@H](OC(=O)Nc2ccccc2)[C@H]1OC(=O)Nc1ccccc1 | FALSE
O=C(C[C@H]1C[C@@H]2c3cc(NC(=O)c4ccc5c(c4)OCO5)ccc3O[C@@H]2[C@H](CO)O1)NCc1ccc(Oc2ccccc2)cc1 | FALSE
O=C(C[C@H]1C[C@H]2c3cc(NC(=O)c4ccc5c(c4)OCO5)ccc3O[C@H]2[C@@H](CO)O1)NCc1cccnc1 | FALSE
O=C(Cn1ccc([N+](=O)[O-])n1)n1cccn1 | FALSE

----------
- System: HSkMC (human skeletal muscle cells)
- assay notes: cytotoxicity call (relative viability < 0.9)
- assay conditions: 10 µM
Among all 39,000 compounds or so, about 1,500 (3.8%) were called active. What follows is part of a selection rich in actives, with near analogues and random picks from the rest.
Labels: active, inactive

chem smiles | category label
C[C@@H]1CCCCO[C@H](CN(C)C(=O)c2ccncc2)[C@@H](C)CN([C@H](C)CO)C(=O)c2cc(NC(=O)CCCCCC(=O)Nc3ccccc3N)ccc2O1 | inactive
COc1ccc(S(=O)(=O)Nc2ccc3c(c2)C(=O)N([C@@H](C)CO)C[C@H](C)[C@@H](CN(C)C(=O)Nc2c(C)noc2C)O3)cc1 | inactive
Cc1ccc(S(=O)(=O)N(C)C[C@@H]2Oc3ccc(NC(=O)Nc4ccc(C(F)(F)F)cc4)cc3C(=O)N([C@@H](C)CO)C[C@H]2C)cc1 | inactive
C[C@@H]1CN([C@H](C)CO)C(=O)c2cccc(NC(=O)C3CCOCC3)c2O[C@@H]1CN(C)Cc1ccc2c(c1)OCO2 | inactive
CO[C@@H]1CN(C)C(=O)c2cc(NS(=O)(=O)c3ccccc3)ccc2OC[C@@H](C)N(C(=O)NC(C)C)C[C@H]1C | inactive
COc1ccc(S(=O)(=O)N(C)C[C@@H]2Oc3ccc(NS(=O)(=O)c4ccc(F)cc4)cc3C(=O)N([C@@H](C)CO)C[C@@H]2C)cc1 | inactive
C[C@@H]1CCCCO[C@H](CN(C)C(=O)Cc2ccccc2)[C@H](C)CN([C@H](C)CO)C(=O)c2cc(NS(=O)(=O)c3ccc(Cl)cc3)ccc2O1 | inactive
C[C@@H]1CN([C@@H](C)CO)C(=O)c2cccc(NC(=O)C3CCCCC3)c2O[C@H]1CN(C)Cc1ccc(C(F)(F)F)cc1 | inactive
CN(C)C(=O)C1CCN(S(C)(=O)=O)CC1 | inactive
Cc1noc(C)c1NC(=O)Nc1ccc2c(c1)C(=O)N([C@@H](C)CO)C[C@H](C)[C@H](CN(C)C(=O)NC(C)C)O2 | inactive
C[C@@H]1CN([C@@H](C)CO)C(=O)c2cc(NC(=O)Nc3ccc(C(F)(F)F)cc3)ccc2O[C@@H]1CN(C)S(=O)(=O)c1ccc(Cl)cc1 | active
C[C@H]1CN([C@@H](C)CO)C(=O)c2cc(NC(=O)Nc3ccc(C(F)(F)F)cc3)ccc2O[C@@H]1CN(C)Cc1ccc(Cl)c(Cl)c1 | inactive
C[C@H]1CN([C@@H](C)CO)C(=O)c2cc(NC(=O)Nc3ccc(C(F)(F)F)cc3)ccc2O[C@@H]1CN(C)S(=O)(=O)c1ccc(Cl)cc1 | inactive
O=C(C[C@@H]1C=C[C@@H](NC(=O)CN2CCOCC2)[C@@H](CO)O1)NCc1cccc(F)c1 | inactive
C[C@H](CO)N1C[C@H](C)[C@H](CN(C)S(=O)(=O)c2ccc(Cl)cc2)Oc2ccc(NC(=O)Nc3ccc(C(F)(F)F)cc3)cc2C1=O | active
C[C@H](CO)N1C[C@H](C)[C@@H](CN(C)Cc2ccc(-c3ccccc3)cc2)Oc2c(NC(=O)c3nc4ccccc4s3)cccc2C1=O | inactive
C[C@H]1CN([C@@H](C)CO)C(=O)c2cc(C#CC3(O)CCCC3)cnc2O[C@H]1CN(C)C(=O)C1CCCCC1 | inactive
C[C@@H]1CCCCO[C@@H](CN(C)Cc2ccc(C(F)(F)F)cc2)[C@H](C)CN([C@H](C)CO)C(=O)c2cc(NC(=O)Cc3ccccc3)ccc2O1 | active
C[C@H]1[C@H](C)CC[C@]2(C(=O)O[C@@H]3O[C@H](CO[C@@H]4O[C@H](CO)[C@@H](O[C@@H]5O[C@@H](C)[C@H](O)[C@@H](O)[C@H]5O)[C@H](O)[C@H]4O)[C@@H](O)[C@H](O)[C@H]3O)CC[C@]3(C)C(=CC[C@@H]4[C@@]5(C)C[C@@H](O)[C@H](O)[C@@](C)(CO)[C@@H]5[C@H](O)C[C@]43C)[C@H]12 | inactive
Cc1noc(C)c1NC(=O)Nc1cccc2c1O[C@@H](CN(C)C(=O)Nc1cccc3ccccc13)[C@@H](C)CN([C@@H](C)CO)C2=O | inactive
Cc1ccc(S(=O)(=O)N(C)C[C@@H]2Oc3ccc(NC(=O)Nc4ccc(C(F)(F)F)cc4)cc3C(=O)N([C@H](C)CO)C[C@H]2C)cc1 | inactive
C[C@H](CO)N1C[C@H](C)[C@@H](CN(C)Cc2ccc(Cl)c(Cl)c2)Oc2ccc(NC(=O)Nc3ccc(C(F)(F)F)cc3)cc2C1=O | active
C[C@H](CO)N1C[C@H](C)[C@H](CN(C)C(=O)Cc2cccnc2)Oc2ncc(C#Cc3ccccc3F)cc2C1=O | inactive
C[C@@H]1CN([C@H](C)CO)C(=O)c2cc(NS(=O)(=O)c3cccs3)ccc2O[C@@H](C)CCCCO[C@@H]1CN(C)S(C)(=O)=O | inactive
C[C@@H]1CN([C@@H](C)CO)C(=O)c2cc(NC(=O)C3CCCCC3)ccc2O[C@@H](C)CCCCO[C@H]1CN(C)Cc1ccc2c(c1)OCO2 | inactive
O=C(C[C@H]1C[C@@H]2c3cc(NC(=O)c4cccnc4)ccc3O[C@@H]2[C@H](CO)O1)NCc1cc(F)ccc1F | inactive
